Test system: Fusarium graminearum (FGR; isolate 73B ISU)
Format: cell-based
COND: low salt conditions
The following substances are shown together with reported In vitro antifungal activity (IC50) against F. graminearum (FGR) values.
OBSERVED_PROPERTY: In vitro antifungal activity (IC50) against F. graminearum (FGR)

| SUBSTANCE | ASSAY_SYSTEM | RECORDED_RESULT |
| --- | --- | --- |
| LB-5220 (r2 6F2): LBNL variant generated through gene shuffling of the LB-5220 mature peptide coding sequence (LKYTGTCRRANNQCKYKGQNNRDTFVKCPTFANKKCTRDGEKCSFDSYSRAVTCD; LB-5220 (r2-6F2)) | Fusarium graminearum (FGR; isolate 73B ISU) | >10 ppm |
| LB-9827-1: parent antifungal polypeptide from the fungus Monascus ruber, previously disclosed in U.S. Pat. No. 7,306,946 (LSKFGGECSLKHNTCTYLKGGKNHVVNCGSAANKKCKSDRHHCEYDEHHKRVDCQTPV; Monascus ruber) [reference compound] | Fusarium graminearum (FGR; isolate 73B ISU) | <0.1 ppm |
| LB-5220: parent antifungal polypeptide isolated from Penicillium simplicissimum, previously disclosed in U.S. Pat. No. 7,306,946 (LKYTGTCTRANNQCKYKGQNDRDTFVKCPTFANKKCTRDGAPCSFDSYSRAVTCD; listed as Penicillium simplicissimum) [reference compound] | Fusarium graminearum (FGR; isolate 73B ISU) | >10 ppm |
| LB-5220 (ps 1B4): LBNL variant generated through gene shuffling of the LB-5220 mature peptide coding sequence (LKYTGTCTRKNNQCKYRGQNNRDTFVKCPTFANKRCTRDGAPCSFDSYSRAVTCD; Synthetic peptide LB-5220 (ps-1B4)) | Fusarium graminearum (FGR; isolate 73B ISU) | >10 ppm |
| LB-5220 (r2 5G7): LBNL variant generated through gene shuffling of the LB-5220 mature peptide coding sequence (LKYTGTCRRANNQCKYKGQNNRDTFVKCPTFANKKCTRDGAKCSFDSYSRAVTCD; Synthetic peptide LB-5220 (r2-5G7)) | Fusarium graminearum (FGR; isolate 73B ISU) | >10 ppm |

The reported measurements were obtained from patent US8853490B2.
